Listing of entries alongside the reported IC50.
target: 12-lipoxygenase (Rattus norvegicus, UniProt F1LQ70); construct: The pelleted platelets were rinsed twice with a washing buffer; from tissue; host or cells: platelets of Sprague Dawley male rat (sonicate, 100,000 x g supernatant); experiment: 12-lipoxygenase inhibition assay (rat platelet enzyme solution); format: biochemical, Sprague Dawley male rat; details: Table 23; read-out: 12-Lipoxygenase inhibitory effect IC50
Sequence (F1LQ70 whole entry): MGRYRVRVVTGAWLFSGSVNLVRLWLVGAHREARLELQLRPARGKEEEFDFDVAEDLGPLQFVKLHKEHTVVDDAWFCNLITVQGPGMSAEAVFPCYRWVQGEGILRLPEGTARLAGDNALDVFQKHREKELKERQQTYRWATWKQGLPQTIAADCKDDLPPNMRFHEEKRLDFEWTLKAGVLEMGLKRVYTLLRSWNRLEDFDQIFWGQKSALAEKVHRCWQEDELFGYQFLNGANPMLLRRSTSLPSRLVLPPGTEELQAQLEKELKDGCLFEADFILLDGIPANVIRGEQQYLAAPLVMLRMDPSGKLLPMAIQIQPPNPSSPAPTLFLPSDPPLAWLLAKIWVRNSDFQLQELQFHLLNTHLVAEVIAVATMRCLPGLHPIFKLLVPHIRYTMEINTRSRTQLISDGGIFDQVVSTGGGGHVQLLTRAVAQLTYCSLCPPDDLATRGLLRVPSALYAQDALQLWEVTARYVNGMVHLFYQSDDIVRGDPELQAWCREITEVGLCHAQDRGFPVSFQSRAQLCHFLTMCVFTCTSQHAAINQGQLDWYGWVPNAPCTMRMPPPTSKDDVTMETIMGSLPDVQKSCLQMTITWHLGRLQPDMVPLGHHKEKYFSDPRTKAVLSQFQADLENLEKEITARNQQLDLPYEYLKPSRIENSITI

MOLECULE	IC50
N#CC(=Cc1ccc(O)c(O)c1)c1ccc2ccccc2c1 [Formula 23c]	10 nM
N#CC(=Cc1cccc2ccccc12)c1ccc(O)c(O)c1 [Formula 25c]	5.9 nM
N#CC(=Cc1ccc2ccccc2c1)c1ccc(O)c(O)c1 [Formula 24c]	5.6 nM
N#CC(=Cc1ccc(O)c(O)c1)c1csc2ccccc12 [Formula 22c]	8.6 nM
N#CC(=Cc1cc2ccccc2o1)c1ccc(O)c(O)c1 [Formula 26c]	3.2 nM

====

Listing of entries alongside the reported pIC50.
Target: 5-lipoxygenase (Rattus norvegicus, UniProt P12527)
Construct: Cultured cells were collected and washed twice; host or cells: RBL-1 rat basophilic leukemia cells (sonicate, 10,000 x g supernatant)
Sequence (P12527 1-673): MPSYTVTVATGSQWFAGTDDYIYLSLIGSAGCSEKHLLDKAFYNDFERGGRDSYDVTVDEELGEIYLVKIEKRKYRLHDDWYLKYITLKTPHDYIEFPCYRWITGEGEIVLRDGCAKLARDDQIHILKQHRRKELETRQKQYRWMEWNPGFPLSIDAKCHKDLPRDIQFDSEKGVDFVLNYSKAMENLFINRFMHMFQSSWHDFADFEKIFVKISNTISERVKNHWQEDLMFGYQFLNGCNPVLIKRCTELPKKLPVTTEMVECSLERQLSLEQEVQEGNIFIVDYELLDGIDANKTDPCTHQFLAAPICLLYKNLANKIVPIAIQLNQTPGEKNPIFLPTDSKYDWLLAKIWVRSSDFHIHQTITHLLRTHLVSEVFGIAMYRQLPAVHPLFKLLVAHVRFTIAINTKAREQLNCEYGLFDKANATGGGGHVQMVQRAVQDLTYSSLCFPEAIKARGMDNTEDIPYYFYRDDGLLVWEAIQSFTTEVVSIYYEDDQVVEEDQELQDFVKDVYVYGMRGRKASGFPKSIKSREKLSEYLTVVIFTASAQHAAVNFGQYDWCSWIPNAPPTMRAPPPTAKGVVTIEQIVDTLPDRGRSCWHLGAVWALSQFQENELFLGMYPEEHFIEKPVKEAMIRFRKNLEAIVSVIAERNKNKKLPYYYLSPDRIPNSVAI
Assay: 5-lipoxygenase inhibition assay (rat basophilic leukemia cell RBL-1 enzyme solution)
Format: biochemical
Conditions: Table 23; read-out: 5-Lipoxygenase inhibitory effect IC50
pIC50: −log10 of the molar value.
PARAMETER: pIC50

COMPOUND	NUMERIC RESULT
N#CC(=Cc1ccc(O)c(O)c1)c1csc2ccccc12 [Formula 22c]	7.25
N#CC(=Cc1cccc2ccccc12)c1ccc(O)c(O)c1 [Formula 25c]	7.44
N#CC(=Cc1cc2ccccc2o1)c1ccc(O)c(O)c1 [Formula 26c]	7.47
N#CC(=Cc1ccc(O)c(O)c1)c1ccc2ccccc2c1 [Formula 23c]	7.52
N#CC(=Cc1ccc2ccccc2c1)c1ccc(O)c(O)c1 [Formula 24c]	7.55

====

Listing of entries alongside the reported pIC50.
biological target: 5-lipoxygenase (Rattus norvegicus, UniProt P12527); construct: Cultured cells were collected and washed twice; host or cells: RBL-1 rat basophilic leukemia cells (sonicate, 10,000 x g supernatant); assay: 5-lipoxygenase inhibition assay (rat basophilic leukemia cell RBL-1 enzyme solution); assay type: biochemical; conditions: Table 3; read-out: IC50 values of 5-lipoxygenase (mole)
pIC50: −log10 of the molar value.

COMPOUND	pIC50
CCc1ccc(C=C(C#N)c2ccc(O)c(O)c2)cc1 [Ex. 26, α-cyano-4'-ethyl-3,4-dihydroxystilbene]	7.49
N#CC(=Cc1ccc(O)c(O)c1)c1ccc(Br)cc1	7.82
N#CC(=Cc1ccc(O)c(O)c1)c1ccc(I)cc1 [Ex. 5, α-cyano-4-iodo-3',4'-dihydroxystilbene]	7.70
